# Tested on: C.albicans CCARM 14021
# Format: cell-based, Candida albicans
# condition.set: CCARM 14021, 24 h
Where no end group is shown, it is not given here.
This section presents substances with their documented MICs values.

substance	MICs
AKRHHGLNCAKFH-NH2 [PH2]	1 to 2 µg/mL
WLNAKRHHGYKRKFH-NH2 [WP1]	8 to 16 µg/mL
AKRHHGLNCAKGVLA-NH2 [PH1]	8 to 16 µg/mL
AKRHHGYKRKFH-NH2 [P113]	4 to 8 µg/mL
WLNALLHHGYKRKFH-NH2 [HHP1]	2 to 4 µg/mL

----------
Reported MICs is given for each of the following substances.
# Tested on: C.albicans CCARM 14020
# Type: cell-based, Candida albicans
# condition.set: CCARM 14020, 24 h
Where no end group is shown, it is not given here.

substance	MICs
ALLHHGYKRKFH-NH2 [HHP2]	8 to 16 µg/mL
AKRHHGLNCAKGVLA-NH2 [PH1]	16 to 32 µg/mL
WLNALLHHGYKRKFH-NH2 [HHP1]	2 to 4 µg/mL
AKRHHGYKRKFH-NH2 [P113]	4 to 8 µg/mL
AKRHHGLNCAKFH-NH2 [PH2]	1 to 2 µg/mL
WLNAKRHHGYKRKFH-NH2 [WP1]	4 to 8 µg/mL
